Listed compounds paired with reported inhibition
biological target: Cyclin-dependent kinase 6 (Homo sapiens) (UniProt Q00534); conditions: at 1 µM;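 note: mean percent inhibition of the kinase bound to its cyclin partner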
Sequence (Q00534 whole entry): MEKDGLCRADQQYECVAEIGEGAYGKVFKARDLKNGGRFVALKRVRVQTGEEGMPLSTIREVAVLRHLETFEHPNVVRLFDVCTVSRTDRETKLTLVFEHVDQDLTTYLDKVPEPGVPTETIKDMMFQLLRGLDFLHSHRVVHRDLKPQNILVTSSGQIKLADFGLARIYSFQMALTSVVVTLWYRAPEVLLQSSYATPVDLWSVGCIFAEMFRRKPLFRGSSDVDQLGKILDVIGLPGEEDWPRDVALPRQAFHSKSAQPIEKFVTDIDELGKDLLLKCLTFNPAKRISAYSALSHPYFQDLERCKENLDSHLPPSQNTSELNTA

Mol smiles | inhibition, %
CN(C)CCNC(=O)Nc1ccc(N(C)c2ccnc(Nc3ccc(CS(C)(=O)=O)cc3)n2)cc1 | 4.3
CS(=O)(=O)Nc1ccc(-c2cc(-c3ccccc3)cc(C(N)=O)c2N)cc1 | -0.55
COc1cccc(Nc2nccc(-c3cnn4ncccc34)n2)c1 | 80.5
CCCNc1cccc(-n2ncc3c(N/N=C/c4ccncc4)ncnc32)c1 | 10.1
CN1CCC(n2cnc(-c3ccc(F)cc3)c2-c2ccnc(NCCO)n2)CC1 | 2.73
COc1cc(Nc2ncc(-c3ccccc3)o2)cc(OC)c1 | 29.8
Cc1ccc(-c2cc3c(NC(=O)C4CC4)ncnc3o2)cc1 | 3.23
O=C(O[C@H]1CN[C@H](C#Cc2cc3ncnc(Nc4ccc5c(cnn5Cc5ccccc5)c4)c3s2)C1)N1CCOCC1 | 0.26
CCN1CCC(C(=O)Nc2n[nH]c3nnc(-c4cccc(F)c4F)cc23)CC1 | 28.9
COc1ccc(-c2nn3ncccc3c2-c2ccnc(Nc3ccc(F)c(F)c3)n2)cc1 | 3.48

* * *

molecular target: Glycogen synthase kinase-3 beta (Homo sapiens) (UniProt P49841); details: at 0.1 µM;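 note: values are mean percent inhibition of GSK3B activity, from the GSK Published Kinase Inhibitor Set (PKIS) screening dataset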
Sequence (P49841 whole entry, looked up): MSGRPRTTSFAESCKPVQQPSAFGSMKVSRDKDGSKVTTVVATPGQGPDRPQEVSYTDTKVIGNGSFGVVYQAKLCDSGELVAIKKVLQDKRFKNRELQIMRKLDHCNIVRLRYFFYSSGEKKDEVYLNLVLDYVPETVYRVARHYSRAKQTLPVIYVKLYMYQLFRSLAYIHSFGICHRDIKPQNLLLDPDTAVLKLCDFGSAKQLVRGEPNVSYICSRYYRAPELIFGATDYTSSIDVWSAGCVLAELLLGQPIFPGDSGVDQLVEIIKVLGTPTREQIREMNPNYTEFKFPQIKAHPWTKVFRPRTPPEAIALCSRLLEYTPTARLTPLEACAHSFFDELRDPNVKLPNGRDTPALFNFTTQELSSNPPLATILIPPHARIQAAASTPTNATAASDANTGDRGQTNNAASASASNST
Observed property: inhibition

Mol smiles | Observed result
O=C(Nc1n[nH]c2nnc(-c3cccnc3)cc12)C1CC1 | 80%
CS(=O)(=O)CCNCc1ccc(-c2ccc3ncnc(Nc4ccc(OCc5ccccc5)cc4)c3c2)o1 | 1.65%
CS(=O)(=O)CCNCc1ccoc1-c1ccc2ncnc(Nc3ccc(OCc4ccccc4)cc3)c2c1 | 2.8%

* * *

Target: Discoidin domain-containing receptor 2 (Homo sapiens);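 note: reported figure is the mean inhibition of DDR2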
Sequence (whole entry): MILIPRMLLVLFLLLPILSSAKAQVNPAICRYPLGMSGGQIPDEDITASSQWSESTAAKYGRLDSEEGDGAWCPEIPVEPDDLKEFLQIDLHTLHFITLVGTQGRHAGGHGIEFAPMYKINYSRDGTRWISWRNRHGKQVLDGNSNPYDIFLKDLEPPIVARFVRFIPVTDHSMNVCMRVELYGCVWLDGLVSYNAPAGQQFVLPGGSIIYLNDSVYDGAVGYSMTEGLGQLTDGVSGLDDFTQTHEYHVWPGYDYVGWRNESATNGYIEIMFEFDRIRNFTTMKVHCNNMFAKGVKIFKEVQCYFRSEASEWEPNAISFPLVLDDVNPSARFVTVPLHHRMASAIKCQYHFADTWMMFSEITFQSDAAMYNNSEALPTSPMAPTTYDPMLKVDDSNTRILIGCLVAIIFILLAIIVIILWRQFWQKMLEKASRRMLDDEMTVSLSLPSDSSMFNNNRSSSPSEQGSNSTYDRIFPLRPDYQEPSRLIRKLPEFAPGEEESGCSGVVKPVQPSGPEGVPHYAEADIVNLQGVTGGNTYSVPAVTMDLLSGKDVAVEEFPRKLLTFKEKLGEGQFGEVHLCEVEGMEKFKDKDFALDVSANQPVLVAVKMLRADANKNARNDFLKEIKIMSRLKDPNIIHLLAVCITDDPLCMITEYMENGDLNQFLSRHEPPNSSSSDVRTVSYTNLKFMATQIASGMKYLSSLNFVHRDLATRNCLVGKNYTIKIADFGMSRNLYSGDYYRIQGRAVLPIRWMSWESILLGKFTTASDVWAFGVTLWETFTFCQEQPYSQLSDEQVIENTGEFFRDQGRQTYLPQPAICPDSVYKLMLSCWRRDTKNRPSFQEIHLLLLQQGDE
Conditions: at 1 µM
Entries and their measured inhibition follow.
Observed property: inhibition (%)

Molecule | Observed result
COc1cc2c(cc1Nc1nc(Nc3cccc(F)c3C(N)=O)c3cc[nH]c3n1)N(C(=O)CN1CCN(C(C)C)CC1)CC2 | -0.55
Cc1c2ccc(N(C)c3ccnc(Nc4cccc(S(N)(=O)=O)c4)n3)cc2nn1C | 65
COc1cc(N2CCN(C(C)C)CC2)ccc1Nc1nc(Nc2cccc3ncccc23)c2cc[nH]c2n1 | 8.24
CC1=C(C(=O)Nc2ccc3[nH]nc(C)c3c2)C(c2ccc(C(F)(F)F)cc2)CC(=O)N1 (stereo not given) | 1.65
CCN1CCC(C(=O)Nc2n[nH]c3nnc(-c4cccc(F)c4F)cc23)CC1 | 1.17
O=C(O[C@H]1CN[C@H](C#Cc2cc3ncnc(Nc4ccc(OCc5cccc(F)c5)c(Cl)c4)c3s2)C1)N1CCOCC1 | 2.47
CC1(C)CC(n2cnc(-c3ccc(F)cc3)c2-c2ccnc(N)n2)CC(C)(C)N1 | -0.87
N#Cc1cccc(Nc2ncc(-c3ccccc3)o2)c1 | 2.59
CCS(=O)(=O)c1ccc(OC)c(Nc2ncc(-c3cccc(C(C)=O)c3)o2)c1 | 17.9
O=C(O[C@H]1CN[C@H](C#Cc2cc3ncnc(Nc4ccc5c(ccn5Cc5cc(F)ccc5F)c4)c3s2)C1)N1CCOCC1 | 2.8
Cn1c(-c2nonc2N)nc2cnccc21 | 2.78
FC(F)(F)CNc1nccc(-c2cnn3ncccc23)n1 | 0.22
O=C1Nc2ccccc2/C1=C1\CCc2cc(O)ccc21 | 3.76
NS(=O)(=O)c1ccc(N/N=C2\C(=O)Nc3cccc(CCc4ccncc4)c32)cc1 | 1.42
OCCCNc1nccc(-c2c(-c3ccc(F)cc3)nn3cc(C(F)(F)F)ccc23)n1 | 19.3
